Reported values of kinact/KI for individual entries
study-system: rat FAAH (Rattus norvegicus)
Construct: made in house; host or cells: E. coli
Sequence (P97612 1-579): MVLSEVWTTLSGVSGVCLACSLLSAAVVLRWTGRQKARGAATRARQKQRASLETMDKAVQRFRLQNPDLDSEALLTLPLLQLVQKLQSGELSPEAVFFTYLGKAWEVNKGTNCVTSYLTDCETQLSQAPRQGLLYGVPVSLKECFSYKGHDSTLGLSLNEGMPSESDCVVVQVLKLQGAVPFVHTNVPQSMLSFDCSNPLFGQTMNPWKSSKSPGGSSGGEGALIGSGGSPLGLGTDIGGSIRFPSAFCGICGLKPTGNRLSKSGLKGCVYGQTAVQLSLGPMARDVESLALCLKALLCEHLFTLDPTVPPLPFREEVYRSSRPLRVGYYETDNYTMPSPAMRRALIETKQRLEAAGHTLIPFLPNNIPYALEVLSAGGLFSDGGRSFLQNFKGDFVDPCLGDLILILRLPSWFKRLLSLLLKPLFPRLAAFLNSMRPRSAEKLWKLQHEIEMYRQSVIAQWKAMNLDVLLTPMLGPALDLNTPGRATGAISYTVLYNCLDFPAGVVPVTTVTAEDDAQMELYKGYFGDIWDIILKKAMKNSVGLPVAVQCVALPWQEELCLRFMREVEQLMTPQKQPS
assay-method-text: FAAH assay, rat FAAH enzyme inhibition (kinact/Ki)
Type: biochemical
condition-notes: oleamide substrate 50 μM, 30° C., read-out: rFAAH kinact/Ki
Answer with a number only, understood to be in M⁻¹ s⁻¹.

In [3]: df
Out[3]:
                                   molecule                  study_system  parameter  reported_measurement
0  Cc1noc(NC(=O)N2CCC3(CC2)CC(c2ccc(Cl)c(Cl)c2)C3)c1C [Example 20]  rat FAAH (Rattus norvegicus)  kinact/KI                  3470
1  COc1cccc(C2CC3(CCN(C(=O)Nc4onc(C)c4C)CC3)C2)c1 [Example 5]  rat FAAH (Rattus norvegicus)  kinact/KI                   741
2  Cc1noc(NC(=O)N2CCC3(CC2)CC(F)(c2cccc(Cl)c2)C3)c1C [Example 32]  rat FAAH (Rattus norvegicus)  kinact/KI                  1320
3  Cc1cccc(C2CC3(CCN(C(=O)Nc4nnnn4C)CC3)C2)c1 [Example 16]  rat FAAH (Rattus norvegicus)  kinact/KI                  3200
4  Cc1noc(NC(=O)N2CCC3(CC2)CC(c2csc(-c4cccc(C(F)(F)F)c4)n2)C3)c1C [Example 36]  rat FAAH (Rattus norvegicus)  kinact/KI                  1160

With those in mind, consider the next molecule.
# kinact/KI (molecule: Cc1noc(NC(=O)N2CCC3(CC2)CC(c2cccc(Cl)c2F)C3)c1C [Example 29] ) is 2470

---

Reported values of hFAAH kinact/Ki for individual entries
study-system: human FAAH (Homo sapiens, UniProt O00519)
Construct: made in house; host or cells: E. coli
Sequence (O00519 whole entry): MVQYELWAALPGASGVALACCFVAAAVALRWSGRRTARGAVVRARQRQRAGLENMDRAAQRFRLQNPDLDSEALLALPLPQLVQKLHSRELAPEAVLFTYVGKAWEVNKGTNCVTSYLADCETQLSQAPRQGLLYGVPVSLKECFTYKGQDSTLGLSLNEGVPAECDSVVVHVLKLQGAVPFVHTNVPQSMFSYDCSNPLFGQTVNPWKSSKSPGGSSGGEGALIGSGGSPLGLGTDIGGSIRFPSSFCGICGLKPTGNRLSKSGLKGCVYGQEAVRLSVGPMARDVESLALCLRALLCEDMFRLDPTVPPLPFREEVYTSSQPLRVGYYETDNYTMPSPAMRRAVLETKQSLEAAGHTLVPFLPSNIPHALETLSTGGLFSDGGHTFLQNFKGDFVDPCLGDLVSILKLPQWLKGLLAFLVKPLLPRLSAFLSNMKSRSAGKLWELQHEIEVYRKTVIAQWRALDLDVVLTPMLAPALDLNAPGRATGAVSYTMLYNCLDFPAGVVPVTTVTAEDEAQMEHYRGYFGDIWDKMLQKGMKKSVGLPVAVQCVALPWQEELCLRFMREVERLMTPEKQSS
assay-method-text: FAAH assay, human FAAH enzyme inhibition (kinact/Ki)
Format: biochemical
condition-notes: oleamide substrate 50 μM, 30° C.
Procedure: The FAAH assay was carried out in 384-well clear polystyrene plates (Evergreen Scientific) in a total volume of 50 μl per well in a manner similar to that described by Mileni et al., Proc. Nat. Acad. Sci. 2008, 105, 12820-12824. All percents are by volume. […] The reactions were incubated at 30° C. and the absorbance at 340 nm was collected over a period of 90 min with readings taken in 30-second intervals using SpectraMax Plus^384 Microplate Spectrophotometer (Molecular Devices, Sunnyvale, Calif.). […]
Answer with a number only, understood to be in M⁻¹ s⁻¹.

Previously resolved entries follow.
>>> df
                                   compound        parameter  reported_measurement
0  Cc1noc(NC(=O)N2CCC3(CC(c4ccc(F)c(Cl)c4)C3)C(C)C2)c1C (single isomer, unassigned) [Example 42d]  hFAAH kinact/Ki                  1100
1  Cc1noc(NC(=O)N2CCC3(CC(c4ccc(F)c(Cl)c4)C3)C(C)C2)c1C (single isomer, unassigned) [Example 42c]  hFAAH kinact/Ki                  2760
2  Cc1noc(NC(=O)N2CCC3(CC(c4ccc(F)c(Cl)c4)C3)C(C)C2)c1C (single isomer, unassigned) [Example 42b]  hFAAH kinact/Ki                  37.1

# hFAAH kinact/Ki (compound: Cc1noc(NC(=O)N2CCC3(CC(c4ccc(F)c(Cl)c4)C3)C(C)C2)c1C (single isomer, unassigned) [Example 42a] ) is 1550

Numbers sourced from patent US20100113465A1.
